Molecular target: recombinant homotrimeric HA, A/Egypt/3300-NAMRU3/08 H5N1 (Influenza A virus A/Egypt/3300-NAMRU3/08 (H5N1))
Test: trimeric HA microarray, transfection set 2
Conditions: remark: other sources report otherwise
quantity_name: Trimeric HA Binding RLU

| binder | Trimeric HA Binding RLU |
| --- | --- |
| TCN-527 (5086_C06) (antibody, V domains shown) VH: QVQLQESGPGLVKPSETLSLNCAVSGGSISNYYWSWIRQPPGKGLEWIGYISYNGRPKYNPSLTSRVTISVDTSKDQFSLELRSVTAADTALYYCARETRFGELLSPYDAFEIWGQGTMVTVSS VL: DIQMTQSPSSLSASVGDRVTMTCRASQNIRSYLNWYQQRPGTAPKLLIYAASTLHSGVPSRFSGGGSGTDFTLTINNLQPEDFASYYCQQSYDNPQTFGQGTKVEIK | 23600 RLU |
| TCN-504 (3251_K17) (antibody, V domains shown) VH: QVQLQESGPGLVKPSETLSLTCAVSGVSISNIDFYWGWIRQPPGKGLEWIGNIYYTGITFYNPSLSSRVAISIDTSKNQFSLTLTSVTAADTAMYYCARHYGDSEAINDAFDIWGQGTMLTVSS VL: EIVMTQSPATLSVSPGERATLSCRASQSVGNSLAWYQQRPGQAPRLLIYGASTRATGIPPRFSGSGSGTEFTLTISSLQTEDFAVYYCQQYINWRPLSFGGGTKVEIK | 21400 RLU |

Looking up TCN-522 (3212_I12) (antibody, V domains shown) VH: QVQLQQWGAGLLKPSETLSLTCTVSGGSLTDYSWNWIRQPPGKGLEWIGDTLHNGYTNYNPSLRGRVSISIDTSKNQVSLRLTSVTAADTALYYCARGSGGYGGFDYFGKLRTWDFWGQGTLVTVSS VL: DIQLTQSPSSLSASVGDRVTITCRASQGIRNDLGWYQQKPGNAPKRLIFGASSLQSGVPSRFSGSGSGTEFTLTISSLQPEDFATYYCLQHNSYPYTFGQGTKLEIK , I see its Trimeric HA Binding RLU listed as 55400 RLU

The values you see were collected from patent US20120207760A1.
